Tested on: HPV31
assay: Inhibition of viral replication in cells that maintain HPV31 DNA, viral DNA quantified by real-time PCR
Type: cell-based, Human papilloma virus
condition label: cells maintaining HPV31 cultured 72 hours with polyamide; vs DMSO control; highest dose tested 10 μM
metric name: pIC50
Conceptually, pIC50 converts a concentration in mol/L into minus its log10.

The molecule listed as CN(C)CCCNC(=O)CCNC(=O)c1cc(NC(=O)c2cc(NC(=O)c3cc(NC(=O)c4cc(NC(=O)CCNC(=O)c5cc(NC(=O)c6cc(NC(=O)CCCNC(=O)c7cc(NC(=O)c8cc(NC(=O)c9cc(NC(=O)CCNC(=O)c%10cc(NC(=O)c%11cc(N=C(N(C)C)N(C)C)cn%11C)cn%10C)cn9C)cn8C)cn7C)cn6C)cn5C)cn4C)cn3C)cn2C)cn1C [NV1083, TMG-PyPyβPyPyPy-γ-PyPyβPyPyPyPyβ-Dp•2TFA] has a reported pIC50 of 5.51

The molecule listed as CN(CCCN)CCCNC(=O)CCNC(=O)c1cc(NC(=O)CCNC(=O)c2cc(NC(=O)c3cc(NC(=O)c4cc(NC(=O)CCNC(=O)c5cc(NC(=O)c6cc(NC(=O)CCNC(=O)c7cc(NC(=O)[C@@H](CCNC(=O)c8nc(NC(=O)c9cc(NC(=O)CCNC(=O)c%10cc(NC(=O)c%11cc(NC(=O)CCNC(=O)c%12cc(NC(=O)c%13cc(NC(=O)c%14cc(N=C(N(C)C)N(C)C)cn%14C)cn%13C)cn%12C)cn%11C)cn%10C)cn9C)cn8C)NC(=O)NCCCN(C)CCCN)cn7C)cn6C)cn5C)cn4C)cn3C)cn2C)cn1C [NV1072] has a reported pIC50 of 7.02

The molecule listed as CN(C)CCCNC(=O)CCNC(=O)c1cc(NC(=O)CCNC(=O)c2cc(NC(=O)c3cc(NC(=O)c4cc(NC(=O)CCNC(=O)c5cc(NC(=O)c6cc(NC(=O)CCNC(=O)c7cc(NC(=O)CCCNC(=O)c8nc(NC(=O)c9cc(NC(=O)CCNC(=O)c%10cc(NC(=O)c%11cc(NC(=O)CCNC(=O)c%12cc(NC(=O)c%13cc(N=C(N(C)C)N(C)C)cn%13C)cn%12C)cn%11C)cn%10C)cn9C)cn8C)cn7C)cn6C)cn5C)cn4C)cn3C)cn2C)cn1C [NV1089] has a reported pIC50 of 7.34
